experiment.notes: phase I study: plasma pharmacokinetics
Format: in vivo, patients
settings: human, plasma, oral, 40 mg, ECT 40 mg BID, 7-day schedule, Day 7, n=4; read-out: Mean t1/2 (sd) (converted)
quantity: half-life (min)
Answers are plain numbers, in min.

Request: What value of measured half-life is listed for COc1cc(Nc2ncc3c(n2)-c2ccc(Cl)cc2C(c2c(F)cccc2OC)=NC3)ccc1C(=O)O [MLN8237, alisertib] ?
Response: 1190

----------
experiment.notes: phase I study: plasma pharmacokinetics
Type: in vivo, patients
settings: human, plasma, oral, 50 mg, ECT 50 mg BID, 7-day schedule, Day 7, n=5; read-out: Mean t1/2 (sd) (converted)
quantity: half-life (h)
One number for each entry, in h.

Request: Requested field: half-life. Item: COc1cc(Nc2ncc3c(n2)-c2ccc(Cl)cc2C(c2c(F)cccc2OC)=NC3)ccc1C(=O)O
Response: 18.4

----------
experiment.notes: phase I study: plasma pharmacokinetics
Format: in vivo, patients
settings: human, plasma, oral, 30 mg, ECT 30 mg BID, 7-day schedule, Day 1, first dose, N 3; read-out: Geometric mean AUC0–tlast (CV, %)
quantity: AUC(0-t) (µM·h)
Numbers only, in µM·h.

Request: Which AUC(0-t) is listed for COc1cc(Nc2ncc3c(n2)-c2ccc(Cl)cc2C(c2c(F)cccc2OC)=NC3)ccc1C(=O)O [MLN8237, alisertib] ?
Response: 5.52

----------
experiment.notes: phase I study: plasma pharmacokinetics
Assay type: in vivo, patients
settings: human, plasma, oral, 50 mg, ECT 50 mg BID, 7-day schedule, Day 1, first dose, n=9; read-out: Geometric mean AUC0–tlast (CV, %)
quantity: AUC(0-t)

Request: Query (compound): COc1cc(Nc2ncc3c(n2)-c2ccc(Cl)cc2C(c2c(F)cccc2OC)=NC3)ccc1C(=O)O ; field requested: AUC(0-t)
Response: 9.73 µM·h

----------
experiment.notes: phase I study: plasma pharmacokinetics
Format: in vivo, patients
settings: human, plasma, oral, 30 mg, ECT 30 mg BID, 7-day schedule, Day 7, N 3; read-out: Geometric mean AUC0–tlast (CV, %)
quantity: AUC(0-t) (µM·h)
Numbers only, in µM·h.

Request: Look up AUC(0-t): COc1cc(Nc2ncc3c(n2)-c2ccc(Cl)cc2C(c2c(F)cccc2OC)=NC3)ccc1C(=O)O [MLN8237, alisertib]
Response: 16

----------
experiment.notes: phase I study: plasma pharmacokinetics
Type: in vivo, patients
settings: human, plasma, oral, 30 mg, ECT 30 mg BID, 7-day schedule, Day 7, N 3; read-out: Median Tmax (range)
quantity: Tmax (h)
Give bare numbers, in h.

Request: Tmax lookup needed for COc1cc(Nc2ncc3c(n2)-c2ccc(Cl)cc2C(c2c(F)cccc2OC)=NC3)ccc1C(=O)O , thanks.
Response: 2

----------
experiment.notes: phase I study: plasma pharmacokinetics
Format: in vivo, patients
settings: human, plasma, oral, 50 mg, ECT 50 mg BID, 7-day schedule, Day 1, first dose, N 10; read-out: Median Tmax (range)
quantity: Tmax (h)
Give bare numbers, in h.

Request: Which measured Tmax value corresponds to COc1cc(Nc2ncc3c(n2)-c2ccc(Cl)cc2C(c2c(F)cccc2OC)=NC3)ccc1C(=O)O ?
Response: 2

----------
experiment.notes: phase I study: plasma pharmacokinetics
Type: in vivo, patients
settings: human, plasma, oral, multiple-dose administration, PIC and ECT; read-out: steady-state t1/2, range
quantity: half-life

Request: For the compound COc1cc(Nc2ncc3c(n2)-c2ccc(Cl)cc2C(c2c(F)cccc2OC)=NC3)ccc1C(=O)O , what half-life is on record?
Response: 10 to 43 h

Origin of values: paper PMC4045308
